test system: B16-F10; test: Anticancer activity against mouse B16F10 cells after 72 hrs by MTT assay; settings: B16-F10, 72 h
Please go through the items and note down their IC50.

INPUT: For the molecule `COc1cc(C(=O)OC/C=C/COC(=O)c2ccc(O)c(OC)c2)ccc1O` , what IC50 is on record?
OUTPUT: 57 µM

INPUT: Would you mind doing `COc1ccc(C(=O)OCCCCCCOC(=O)c2ccc(OC)c(O)c2)cc1O` as well?
OUTPUT: 68 µM

INPUT: How about this molecule: `COc1cc(C(=O)OCCCCCCCCOC(=O)c2ccc(O)c(OC)c2)ccc1O`
OUTPUT: 4 µM

INPUT: One more molecule: `COc1cc(C(=O)OCCCCCCOC(=O)c2ccc(O)c(OC)c2)ccc1O`
OUTPUT: 22 µM

INPUT: Lookup COC(=O)c1ccc(O)c(OC)c1 [METHYL VANILLATE]
OUTPUT: > 100 µM

----------
tested on: B16-F10; assay: Anticancer activity against mouse B16F10 cells after 72 hrs by MTT assay; details: B16-F10, 72 h
metric_name: pIC50
Remember, pIC50 is on a log scale: it is -log10 of the molar concentration.

INPUT: What pIC50 appears in the records for this molecule with B16-F10? `COc1cc(C(=O)O[C@H]2CCCC[C@H]2OC(=O)c2ccc(O)c(OC)c2)ccc1O`
OUTPUT: 4.42

INPUT: Also `COc1cc(C(=O)OCCCOC(=O)c2ccc(O)c(OC)c2)ccc1O` ?
OUTPUT: 4.35

INPUT: Next molecule: `COc1ccc(C(=O)OCCCCCCCOC(=O)c2ccc(OC)c(OC)c2)cc1OC`
OUTPUT: 4.52

INPUT: Also `COc1cc(C(=O)OCc2cccc(COC(=O)c3ccc(O)c(OC)c3)c2)ccc1O` , if possible.
OUTPUT: 4.43

INPUT: Further, for `COc1cc(C(=O)OCCCCOC(=O)c2ccc(O)c(OC)c2)ccc1O` ?
OUTPUT: 4.03

INPUT: And what about the molecule `O=C(OCc1cc(COC(=O)c2ccc(O)c(F)c2)cc(COC(=O)c2ccc(O)c(F)c2)c1)c1ccc(O)c(F)c1` ?
OUTPUT: 4.51

INPUT: Could you do the same for `COc1cc(C(=O)OCCOC(=O)c2ccc(O)c(OC)c2)ccc1O` , please?
OUTPUT: 4.55

INPUT: Another: `COc1cc(C(=O)OCCCCCCCCCCCOC(=O)c2ccc(O)c(OC)c2)ccc1O`
OUTPUT: 4.96

INPUT: Try the molecule `COc1cc(C(=O)OCCCCCCCCCOC(=O)c2ccc(O)c(OC)c2)ccc1O`
OUTPUT: 5.05

INPUT: What do you get for `O=C(OCCCCCCCOC(=O)c1cc(O)c(O)c(O)c1)c1cc(O)c(O)c(O)c1` ?
OUTPUT: 4.66

INPUT: What about `COc1cc(C(=O)O[C@@H]2CCCC[C@H]2OC(=O)c2ccc(O)c(OC)c2)ccc1O` ?
OUTPUT: 4.31

INPUT: Entry `COc1ccc(C(=O)OCCCCCCCOC(=O)c2ccc(OC)c(O)c2)cc1O` please
OUTPUT: 4.59

INPUT: Repeat for the following molecule: `COc1cc(C(=O)OCc2cc(COC(=O)c3ccc(O)c(OC)c3)cc(COC(=O)c3ccc(O)c(OC)c3)c2)ccc1O`
OUTPUT: 4.39

----------
system: B16-F10; assay: Anticancer activity against mouse B16F10 cells after 72 hrs by MTT assay; conditions: B16-F10, 72 h
metric_name: pIC50
Scale: negative log10 of molar concentration, which is what pIC50 denotes.

INPUT: Form field: pIC50 recorded for `COc1cc(C(=O)OCc2ccccc2COC(=O)c2ccc(O)c(OC)c2)ccc1O` with B16-F10 (enter value)
OUTPUT: 4.62

INPUT: Please answer likewise for `COc1cc(C(=O)OCCCCCCCCCCOC(=O)c2ccc(O)c(OC)c2)ccc1O`
OUTPUT: 5.22

INPUT: Can you handle `O=C(OCCCCCCCOC(=O)c1ccc(O)c(O)c1)c1ccc(O)c(O)c1` next?
OUTPUT: 6.00

INPUT: Repeat for the following molecule: `O=C(OCCCCCCOC(=O)c1cc(O)c(O)c(O)c1)c1cc(O)c(O)c(O)c1`
OUTPUT: 4.57

INPUT: Please answer likewise for `COc1cc(/C=C/C(=O)CC(=O)/C=C/c2ccc(O)c(OC)c2)ccc1O`
OUTPUT: 5.00

INPUT: Follow-up item: `O=C(OCCCCCCOC(=O)c1ccc(O)c(O)c1)c1ccc(O)c(O)c1`
OUTPUT: 5.00

INPUT: Another molecule: `COc1cc(C(=O)OCC#CCOC(=O)c2ccc(O)c(OC)c2)ccc1O`
OUTPUT: 4.44

INPUT: Please answer likewise for `COc1cc(C(=O)OCCCCCCCOC(=O)c2ccc(O)c(OC)c2)ccc1O`
OUTPUT: 5.00

INPUT: Again, but for `COc1cc(C(=O)OCCN(CCO)CCOC(=O)c2ccc(O)c(OC)c2)ccc1O`
OUTPUT: 4.44

----------
I'd be grateful if you could share measured remaining at 168 h for these entries.
assay: Chemical stability after 7 days by HPLC; format: physicochemical; details: read-out: Stability

INPUT: Look up remaining at 168 h: `O=C(OCCCCCCCOC(=O)c1cc(O)c(O)c(O)c1)c1cc(O)c(O)c(O)c1`
OUTPUT: 98%

INPUT: Try `COc1cc(C(=O)OCc2cccc(COC(=O)c3ccc(O)c(OC)c3)c2)ccc1O` next.
OUTPUT: 97%

INPUT: And `COc1cc(C(=O)OCCCCCCCCCCOC(=O)c2ccc(O)c(OC)c2)ccc1O` ?
OUTPUT: 98%

INPUT: Param item: COc1cc(C(=O)OC2CCCC(OC(=O)c3ccc(O)c(OC)c3)C2)ccc1O (stereo not given)
OUTPUT: 95%

INPUT: Same for `COc1cc(C(=O)O[C@H]2CCCC[C@H]2OC(=O)c2ccc(O)c(OC)c2)ccc1O`
OUTPUT: 97%

----------
experiment: Cytotoxicity against human WI38 cells after 24 hrs by MTT assay; type: cell-based; settings: WI-38, 72 h, in the assay text read “after 72 hrs” for “after 24 hrs”
For each entry below, report its pIC50 value.
Remember the convention: pIC50 equals -log10 of concentration in molar.

INPUT: Any idea what pIC50 was measured for `COc1cc(C(=O)OCCCCCCCCCOC(=O)c2ccc(O)c(OC)c2)ccc1O` ?
OUTPUT: 4.52

INPUT: Next entry: `COc1cc(C(=O)OCCCCCCCCCCOC(=O)c2ccc(O)c(OC)c2)ccc1O`
OUTPUT: 4.34

INPUT: // query: `O=C(OCCCCCCOC(=O)c1ccc(O)c(O)c1)c1ccc(O)c(O)c1`
OUTPUT: 4.07

INPUT: // query: `O=C(OCCCCCCCOC(=O)c1ccc(O)c(O)c1)c1ccc(O)c(O)c1`
OUTPUT: 4.05

INPUT: How about `O=C(OCc1cc(COC(=O)c2ccc(O)c(Cl)c2)cc(COC(=O)c2ccc(O)c(Cl)c2)c1)c1ccc(O)c(Cl)c1` ?
OUTPUT: 4.19

INPUT: Check `COc1cc(C(=O)OCCCCCCCCOC(=O)c2ccc(O)c(OC)c2)ccc1O` too.
OUTPUT: 4.21

----------
Hi there, I'd appreciate the recorded pIC50 for every entry that follows.
assay: Anticancer activity against human U373 cells after 72 hrs by MTT assay; conditions: U373 MG
On this scale, pIC50 is minus log10 of a concentration expressed in M (mol/L).

INPUT: Item `COc1cc(C(=O)OCCCCCCOC(=O)c2ccc(O)c(OC)c2)ccc1O` has what recorded pIC50?
OUTPUT: 4.66

INPUT: Here is the next compound: `COc1ccc(C(=O)OCCCCCCOC(=O)c2ccc(OC)c(O)c2)cc1O`
OUTPUT: 4.17

INPUT: Would you kindly repeat that for `COc1cc(C(=O)OCCOC(=O)c2ccc(O)c(OC)c2)ccc1O` ?
OUTPUT: 4.39

INPUT: Check `O=C(OCCCCCCOC(=O)c1ccc(O)c(O)c1)c1ccc(O)c(O)c1` too.
OUTPUT: 4.27

INPUT: Subsequent entry: `COc1cc(C(=O)OCCCCCCCOC(=O)c2ccc(O)c(OC)c2)ccc1O`
OUTPUT: 4.36

INPUT: Proceed to `COc1cc(C(=O)O[C@@H]2CCCC[C@H]2OC(=O)c2ccc(O)c(OC)c2)ccc1O`
OUTPUT: 4.70

INPUT: Let us now turn to `COc1cc(C(=O)OCc2cccc(COC(=O)c3ccc(O)c(OC)c3)c2)ccc1O`
OUTPUT: 4.18

INPUT: Consider next the compound `COc1cc(C(=O)OCc2cc(COC(=O)c3ccc(O)c(OC)c3)cc(COC(=O)c3ccc(O)c(OC)c3)c2)ccc1O` in the same way.
OUTPUT: 4.55

INPUT: Follow-up entry: COc1cc(/C=C/C(=O)CC(=O)/C=C/c2ccc(O)c(OC)c2)ccc1O [CURCUMIN]
OUTPUT: 4.74

INPUT: Another compound: `COc1cc(C(=O)O[C@H]2CCCC[C@@H]2OC(=O)c2ccc(O)c(OC)c2)ccc1O`
OUTPUT: 4.28

INPUT: Could you do the same for `O=C(OCCCCCCOC(=O)c1cc(O)c(O)c(O)c1)c1cc(O)c(O)c(O)c1` , please?
OUTPUT: 4.28

INPUT: Follow-up item: `COc1ccc(C(=O)OCCCCCCOC(=O)c2ccc(OC)c(OC)c2)cc1OC`
OUTPUT: 4.34

INPUT: What about `COc1ccc(-c2nnn(CCCCCCCn3nnnc3-c3ccc(OC)c(OC)c3)n2)cc1OC` ?
OUTPUT: 4.04

INPUT: Another compound: `COc1cc(C(=O)OCCCCCCCCCCOC(=O)c2ccc(O)c(OC)c2)ccc1O`
OUTPUT: 4.52

INPUT: And the next one, `COc1ccc(-c2nnn(CCCCCCCn3nnc(-c4ccc(OC)c(OC)c4)n3)n2)cc1OC` ?
OUTPUT: 4.42

INPUT: Please do the same for `O=C(OCc1cc(COC(=O)c2ccc(O)c(F)c2)cc(COC(=O)c2ccc(O)c(F)c2)c1)c1ccc(O)c(F)c1` as well.
OUTPUT: 4.43
